The reported measurements were obtained from patent US20090170834A1.

Examples of molecules with documented IC50 follow.
System: HT-1080 cells
Assay: Inhibition of growth of HT-1080 cells (Sytox assay)
Format: cell-based
Details: Homo sapiens; HT-1080 fibrosarcoma cells, N-ras codon 12 mutation; compound in DMSO, 48 hours exposure
assay_readout: IC50

1) CCOc1ccccc1-n1c(CN2CCCN(C)CC2)nc2sccc2c1=O [Compound 6] | < 10 nM
2) CCOc1ccccc1-n1c(CN2CCCN(C)CC2)nc2cnccc2c1=O [Compound 9] | > 2000 nM
3) CCOc1ccccc1-n1c(CN2CCCNCC2)nc2sccc2c1=O [Compound 5] | < 10 nM
4) CCOc1ccccc1-n1c(CN2CCCN(CC)CC2)nc2sccc2c1=O [Compound 7] | 10 to 100 nM
5) CCOc1ccccc1-n1c(CN2CCNCC2)nc2c(cnn2-c2ccccc2)c1=O [Compound 3] | > 2000 nM
6) CCOc1ccccc1-n1c(CN2CCNCC2)nc2cnccc2c1=O [Compound 8] | > 2000 nM
7) CCOc1ccccc1-n1c(CN2CCNCC2)nc2sccc2c1=O [Compound 4] | 100 to 1000 nM

* * *

Test system: engineered tumorigenic cells
Test: Sytox primary screen, inhibition of growth of tumorigenic cells
Type: cell-based
Conditions: Homo sapiens; compound in DMSO, 48 hours exposure, Sytox readout
pIC50: −log10 of the molar value.
Each item that follows carries a reported pIC50.
assay_readout: pIC50

1) CCOc1ccccc1-n1c(C(C)N2CCN(C(=O)COc3ccc(Cl)cc3)CC2)nc2c(cnn2-c2ccccc2)c1=O (centres unmarked) | ~5.00
2) CCOc1ccccc1-n1c(C(C)N2CCN(C(=O)COc3ccc(Cl)cc3)CC2)nc2ccncc2c1=O (centres unmarked) | ~5.00
